Overview of reported EC50 of calcium release across a group of binders:
Target: human oxytocin receptor (human, UniProt P30559)
Assay: cell-based or functional assay

>  <BINDER>
H-KFVNDNELG-OH [OT-like peptide #2, Glucose-6-phosphate isomerase 13-21, H-KFVNDNELG-OH]

>  <UNIT STRING>
µM

>  <EC50 of calcium release>
3.21

$$$$
>  <BINDER>
H-LTITNVPNS-OH

>  <UNIT STRING>
µM

>  <EC50 of calcium release>
2.7

$$$$
>  <BINDER>
H-QYIQEGR-OH [OT-like peptide #6, Glucose-6-phosphate isomerase 313-319, H-QYIQEGR-OH]

>  <UNIT STRING>
µM

>  <EC50 of calcium release>
3.79

$$$$
>  <BINDER>
H-KQFVHENELG-OH [OT-like peptide #7, Glucose-6-phosphate isomerase 12-21, H-KQFVHENELG-OH]

>  <UNIT STRING>
µM

>  <EC50 of calcium release>
2.57

$$$$
>  <BINDER>
H-DYVKNMITG-OH [OT-like peptide #1, Elongation factor Tu 87-95, H-DYVKNMITG-OH]

>  <UNIT STRING>
µM

>  <EC50 of calcium release>
2.77

$$$$
>  <BINDER>
H-ATSKNCPIA-OH [OT-like peptide #4, GMP synthase [glutamine-hydrolyzing] 154-162, H-ATSKNCPIA-OH]

>  <UNIT STRING>
µM

>  <EC50 of calcium release>
3.09

$$$$
>  <BINDER>
H-DFVKNMITG-OH [OT-like peptide #17, Elongation factor Tu 89-97, H-DFVKNMITG-OH]

>  <UNIT STRING>
µM

>  <EC50 of calcium release>
7.52

$$$$
>  <BINDER>
H-KYIENISDE-OH

>  <UNIT STRING>
µM

>  <EC50 of calcium release>
8.93

$$$$
